Measured values drawn from the supplement of paper PMC10567573 for this set.

B1: TLE6 (parent)
chain: FWHDTLTEQLWRIFAGVHDEKAKP

Variants of: B1
ASSAY_EXPLANATION: protein stability index of a GFP-peptide fusion (GPS, HEK-293T) (PSI 1-6); higher = more stable;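 note: lentivirally expressed fusions sorted by FACS into six bins by GFP to DsRed ratio, PSI derived from sequencing read proportions per bin multiplied by bin number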
CONDITION_LABEL: c terminus: a fixed tail appended
EXPERIMENTAL_READOUT: protein stability index
Give the value as a plain number.

* FVHDTLTEQLWRIFAGVHDEKAKP | 3.26
* FWHDTLTESLWRIFAGVHDEKAKP | 2.04
* FWHDTLTTQLWRIFAGVHDEKAKP | 1.74
* FWHDTLTEQLWPIFAGVHDEKAKP | 2.43
* FWHDTLTEQLWRIFAGVHDEKAFP | 3.09
* FWHDTLCEQLWRIFAGVHDEKAKP | 3.13
* FWHDTLTEQLWRFFAGVHDEKAKP | 1.96
* FWHDTLTEQLSRIFAGVHDEKAKP | 2.18
* FWHDTLTEQLWRIFAWVHDEKAKP | 2.23
* FWHDTLTEQLWRAFAGVHDEKAKP | 2.02

Please fill in: protein stability index reported for FWHDTLTEQLWRIFAGMHDEKAKP = 1.93

Please fill in: protein stability index reported for FWHDTLTEQLWRIFAGVHDEKAVP = 2.71

Please fill in: protein stability index reported for FWHDTLTEQLIRIFAGVHDEKAKP = 1.79

Please fill in: protein stability index reported for FWHDTLTEQLWRIFAGVHDEKAKY = 1.58

Please fill in: protein stability index reported for FWHDTLTEQLWRIFAGVHDEKAKQ = 1.9

Please fill in: protein stability index reported for FWHDTLTEQLWRIFAGVADEKAKP = 2.38

Please fill in: protein stability index reported for FWHDTLTEQLWRIFAGVHDEKAYP = 1.92

Please fill in: protein stability index reported for FWHDTLTEQLWRIFAGVHDEKAKD = 1.65

Please fill in: protein stability index reported for FWHDTLQEQLWRIFAGVHDEKAKP = 2.46

Please fill in: protein stability index reported for FWHDTLTEQLWRIFRGVHDEKAKP = 1.94

Please fill in: protein stability index reported for FWHWTLTEQLWRIFAGVHDEKAKP = 1.29

Please fill in: protein stability index reported for FWHDTLTEQLWRIFAGVLDEKAKP = 2.67
